# methodDescription: activity coefficient (dimensionless); of the first substance listed, at infinite dilution; xn = mol fraction of the nth substance listed
# studyConditions: 323 K; 101 kPa; Liquid; Chromatography; x1 = 0
quantity: activity coefficient

Consider the following illustrative entries.
>  <compound>
Cc1cccc(C)c1 [1,3-dimethylbenzene] + CCCCCCCC[N+]1(C)CCCC1.O=S(=O)([N-]S(=O)(=O)C(F)(F)F)C(F)(F)F

>  <quantity>
activity coefficient

>  <testResult>
1

$$$$
>  <compound>
CCCC(C)=O [pentan-2-one] + CCCCCCCC[N+]1(C)CCCC1.O=S(=O)([N-]S(=O)(=O)C(F)(F)F)C(F)(F)F

>  <quantity>
activity coefficient

>  <testResult>
0.49

$$$$

Identify activity coefficient associated with the compound C1CCCCC1 [cyclohexane] + CCCCCCCC[N+]1(C)CCCC1.O=S(=O)([N-]S(=O)(=O)C(F)(F)F)C(F)(F)F
3.45

Return the recorded activity coefficient value; entry: CCCCCCCCCCC [undecane] + CCCCCCCC[N+]1(C)CCCC1.O=S(=O)([N-]S(=O)(=O)C(F)(F)F)C(F)(F)F
16.8

Dear colleague, please send me the reported activity coefficient for CCC(=O)CC [pentan-3-one] + CCCCCCCC[N+]1(C)CCCC1.O=S(=O)([N-]S(=O)(=O)C(F)(F)F)C(F)(F)F when you can.
0.45

Give reported activity coefficient value for Cc1ccc(C)cc1 [1,4-dimethylbenzene] + CCCCCCCC[N+]1(C)CCCC1.O=S(=O)([N-]S(=O)(=O)C(F)(F)F)C(F)(F)F
1.01

Answer with the recorded activity coefficient for the compound listed here: Cc1ccccc1C [1,2-dimethylbenzene] + CCCCCCCC[N+]1(C)CCCC1.O=S(=O)([N-]S(=O)(=O)C(F)(F)F)C(F)(F)F
0.92

Give the reported value of activity coefficient for this record: CCCO [propan-1-ol] + CCCCCCCC[N+]1(C)CCCC1.O=S(=O)([N-]S(=O)(=O)C(F)(F)F)C(F)(F)F
1.49

Please give measured activity coefficient of the following entry: C#CCCCC [1-hexyne] + CCCCCCCC[N+]1(C)CCCC1.O=S(=O)([N-]S(=O)(=O)C(F)(F)F)C(F)(F)F
1.57

Report activity coefficient, nothing else, for this compound: CCC(C)=O [butanone] + CCCCCCCC[N+]1(C)CCCC1.O=S(=O)([N-]S(=O)(=O)C(F)(F)F)C(F)(F)F
0.36

# return recorded activity coefficient for input C=CCCCC [hex-1-ene] + CCCCCCCC[N+]1(C)CCCC1.O=S(=O)([N-]S(=O)(=O)C(F)(F)F)C(F)(F)F
3.17

Tell us which activity coefficient value is on record for ClC(Cl)(Cl)Cl [tetrachloromethane] + CCCCCCCC[N+]1(C)CCCC1.O=S(=O)([N-]S(=O)(=O)C(F)(F)F)C(F)(F)F
1.39

Output measured activity coefficient for this item: CC1CCCCC1 [methylcyclohexane] + CCCCCCCC[N+]1(C)CCCC1.O=S(=O)([N-]S(=O)(=O)C(F)(F)F)C(F)(F)F
4.22

Return activity coefficient for the following compound: C#CCCCCC [1-heptyne] + CCCCCCCC[N+]1(C)CCCC1.O=S(=O)([N-]S(=O)(=O)C(F)(F)F)C(F)(F)F
1.94

Origin of values: the NIST ThermoML archive (doi:10.1021/je300692s)
